# experiment.description: In vitro enzyme assay to detect hydrolysis of chlorophenol red-beta-D-[…] directly proportional to the number of Toxoplasma stably expressing beta-galactosidase
# Format: functional, organism-based, Toxoplasma gondii
# Set-up: scale not given: in the data most compounds retested in dose-response had high values
# condition.parameters: 10 µM
Screen size: about 85,000 compounds; about 440 (0.52%) showed an effect of 50% or more. This is one part of a sample in which strong results are shown more often than they occur.
Would you mind sorting the entries by Percent Effect according to these classes? range 1: < 10%; range 2: ≥ 10% and < 20%; range 3: ≥ 20%

# count of solved cases: 2
1. CN(CC(C)(CO)CO)C(=O)Nc1cc(F)cc(F)c1 ... range 2
2. Cc1ccc([C@]2(O)CC[C@H]3CN(Cc4cccc(Cl)c4Cl)C[C@H]32)nc1.O=C(O)CC(O)(CC(=O)O)C(=O)O ... range 3

Shift focus to the following entry.
Input line: // return the class label for COc1ccc(OCCc2sc(C3(O)CCCNCC3)nc2C)cc1.Cl (stereo not drawn)
Output line: range 3

* * *

Each entry below lists one item and its recorded Percent Effect value.
# experiment.description: In vitro enzyme assay to detect hydrolysis of chlorophenol red-beta-D-[…] directly proportional to the number of Toxoplasma stably expressing beta-galactosidase
# Format: functional, organism-based, Toxoplasma gondii
# Design: scale not given: in the data most compounds retested in dose-response had high values
# condition.parameters: 50 µM
Screen size: about 85,000 compounds; about 440 (0.52%) showed an effect of 50% or more. Only a selection was taken, and strong results are over-represented in it overall.
Value expressed in %; do not type the unit.

1. Cc1cc(C2CCCN2)no1 (configuration not stated) ... -6.252
2. CC(C)OCCN1CCC(O)CC1 ... 2.889
3. COC(=O)c1cnc(C)c(OC)c1 ... -7.167

Input line: // query Percent Effect value for entry `CN(CC(=O)N1CCOCC1)Cc1cc(Br)cs1`
Output line: 6.245

Input line: Find the recorded Percent Effect belonging to COC(=O)CCN1CCNC(=O)C1c1cccs1 (configuration not stated) and report it.
Output line: -1.577

Input line: I'd like to know its Percent Effect. The compound in question is `CCN1CCN(CC(=O)Nc2ccc(OC)cc2)CC1`
Output line: 6.454

Input line: Looking for the measured Percent Effect of `Cc1ccc(Br)c(NCC(=O)N2CCOCC2)c1` , can you help?
Output line: 6.776

Input line: Given the entry `CC(C)OCCN1CCN(C(=O)c2cc[nH]n2)CC1` , report its measured Percent Effect.
Output line: -2.714

Input line: For `NC(=O)Cc1ccc(-c2ccc(C(N)=O)c(Cl)c2)cc1` , what is its reported Percent Effect?
Output line: -4.393

Input line: Entry Cc1cc(C)n(CC(=O)N2CC(C)OCC2(C)C)n1 (configuration not stated) has what Percent Effect?
Output line: 5.036

Input line: Any idea what Percent Effect was measured for O=C(NC1CCNC1)C1CCC1 (configuration not stated) ?
Output line: 7.426

Input line: I have this compound here, `CCCn1ccnc1CNC(=O)CCC(=O)N(C)C` , and I need its recorded Percent Effect.
Output line: -10.54

Input line: Value lookup for Percent Effect; key = `CC1(C)CCCN(C(=O)CCS(C)(=O)=O)CC1`
Output line: -2.783

* * *

# experiment.description: In vitro enzyme assay to detect hydrolysis of chlorophenol red-beta-D-[…] directly proportional to the number of Toxoplasma stably expressing beta-galactosidase
# Assay type: functional, organism-based, Toxoplasma gondii
# Parameters: scale not given: in the data most compounds retested in dose-response had high values
# condition.parameters: 10 µM
Out of some 85,000 compounds screened, about 440 (0.52%) showed an effect of 50% or more. The sample holds strong results, similar compounds and a random draw of the others, so the mix is not that of the screen.
Some compounds, each annotated with its measured Percent Effect.
// return numeric value only (unit: %, not printed)

A selection of reference data follows.
1) Cc1csc(N2CCN(C(=O)c3ccc(C)s3)CC2)n1 ... -15.38
2) CCc1cc(=O)[nH]c(-c2ccc(NCCc3ccc(O)cc3)nc2)n1 ... 56.82
3) COc1ccccc1CNC(=O)C1=NN(c2ccc(C)cc2)C(=O)CN1 ... 57.58
4) CN(Cc1ccccc1)C1(C(=O)O)Cc2ccccc2C1 ... -0.5507
5) COC(=O)Nc1nc2c(s1)CN(C(=O)NCc1cccs1)CC2 ... 1.645

Input line: Which Percent Effect is reported for this compound? `COc1ccc(S(=O)(=O)Nc2cnc(N(C)C)nc2)cc1`
Output line: -8.947

Input line: # get_value(readout='Percent Effect', item= `CNC(=O)C1(N(C)CCc2ccccc2)Cc2ccccc2C1` )
Output line: 52.85

Input line: Look at this compound and give its reported Percent Effect. c1ccc(OCC2CC3(CCN(Cc4ccncc4)CC3)CO2)nc1 (stereo not given)
Output line: -2.51

Input line: Which Percent Effect value belongs to `CC(C)NC(=O)Nc1nc2c(s1)CN(C(=O)NCc1cccs1)CC2` ?
Output line: 56.34

Input line: What does the record list as Percent Effect for CCc1cc(=O)[nH]c(-c2ccc(NCCC(C)O)nc2)n1 (stereo not given) ?
Output line: 3.239

* * *

# experiment.description: In vitro enzyme assay to detect hydrolysis of chlorophenol red-beta-D-[…] directly proportional to the number of Toxoplasma stably expressing beta-galactosidase
# Type: functional, organism-based, Toxoplasma gondii
# Design: scale not given: in the data most compounds retested in dose-response had high values
# condition.parameters: 50 µM
In all, about 85,000 compounds went through this assay and about 440 (0.52%) showed an effect of 50% or more. The list comes from a sample in which strong results are over-represented; it also holds close analogues and randomly drawn compounds.
Some compounds, each annotated with its measured Percent Effect.
Hi! Could you send only the number? It should be in %, unit omitted.

1) O=C(CCN1C(=O)CCC1=O)Nc1ccc(F)cc1 ... 6.107

Input line: Give its Percent Effect value. Item: `Cc1noc(CCCNC(=O)c2ccon2)n1`
Output line: 62.73

Input line: Give the measured Percent Effect of `COCC1CCN(C(=O)CCC2CCNCC2)CC1` .
Output line: -0.227

Input line: What does the record list as Percent Effect for `COCCCNc1ccc(Br)cn1` ?
Output line: 6.813

Input line: State the recorded Percent Effect for this entry: `Cc1ocnc1CNC(=O)c1ccc(Br)cn1`
Output line: 1.589

Input line: Need Percent Effect of COC(=O)CC(NC(=O)c1cc(C)n[nH]1)C1CC1 (stereo not drawn) , thanks.
Output line: 5.421

Input line: What value of Percent Effect has been recorded for this entry: `Cc1cc(C)n(CCC(=O)NCc2ccccn2)n1`
Output line: -3.878

Input line: # input compound: `COCCNc1nnc(SCc2ccc(Br)cn2)s1` ; wanted: its Percent Effect
Output line: 98.42

* * *

# experiment.description: In vitro enzyme assay to detect hydrolysis of chlorophenol red-beta-D-[…] directly proportional to the number of Toxoplasma stably expressing beta-galactosidase
# Assay type: functional, organism-based, Toxoplasma gondii
# Parameters: scale not given: in the data most compounds retested in dose-response had high values
# condition.parameters: 10 µM
Hit rate of the full screen: of about 85,000 compounds, about 440 (0.52%) showed an effect of 50% or more. For the sample, strong results were picked, then their nearest neighbours and some compounds at random.
observed.property: Percent Effect (%)
Give just the numeric value; % need not be written.

1. Cc1nn(C)c2c(NCCCn3cccn3)nc(C(C)C)nc12 ... 10.17
2. COC[C@@H]1CCC[C@]12CN(Cc1ccco1)CCO2.O=C(O)C(F)(F)F ... -8.533
3. CCc1nc(NCCCn2cccn2)c2c(n1)c(C)nn2C ... 7.651
4. CCn1nc(C)c2ncnc(NCCCn3ccnc3)c21 ... 9.36
5. Cc1ccc(CC(=O)Nc2cc(C(C)C)n[nH]2)cn1 ... 86.76

Input line: Consider the compound shown here: `COc1ccccc1C1(CNc2snc(Cl)c2C#N)CCCC1` What is its recorded Percent Effect?
Output line: 2.513

* * *

# experiment.description: In vitro enzyme assay to detect hydrolysis of chlorophenol red-beta-D-[…] directly proportional to the number of Toxoplasma stably expressing beta-galactosidase
# Type: functional, organism-based, Toxoplasma gondii
# Set-up: scale not given: in the data most compounds retested in dose-response had high values
# condition.parameters: 10 µM
Hit rate of the full screen: of about 85,000 compounds, about 440 (0.52%) showed an effect of 50% or more. The full list was thinned out, with strong results kept by preference.
Catalogue of compounds with associated Percent Effect
The reply should contain only the number, in %.

1) COc1ccccc1Nc1nc2c(C)nn(C)c2c(=O)n1C ... 9.981
2) Cc1cccnc1[C@]1(O)CC[C@H]2CN(Cc3cccc(Cl)c3Cl)C[C@H]21.O=C(O)CC(O)(CC(=O)O)C(=O)O ... 10.13
3) Cc1nn(C)c2c(=O)n(C(C)C)c(NCCc3ccccc3)nc12 ... 81.01
4) Cc1cc(C(=O)N2CCN(c3nc4c(C)cccc4s3)CC2)no1 ... 11.62
5) Cc1cc(C(=O)N2CCN(c3nc4c(C(C)C)cccc4s3)CC2)no1 ... 14.68
6) CCn1c(NCc2cccnc2)nc2c(C)nn(C)c2c1=O ... 57.44
7) Cc1nc(NCc2cccnc2)c2c(n1)c(C)nn2C ... -7.547
8) O=C(NCCN1CCOCC1)c1cc(-c2ccccc2Cl)[nH]n1 ... -1.617
9) CCc1nc(NCc2ccccn2)c2c(n1)c(C)nn2C ... 20.03

For the next question, use this compound.
Input line: If you can, please state the reported Percent Effect value of O=C(Nc1cccnc1)NC1CCN(c2ccccc2OC(F)F)C1 (stereo not given) .
Output line: -3.215
